target: RAR γ (Homo sapiens, UniProt P13631); test: RAR γ Kd; format: binding; settings: last item of cell EC50/(EFFICACY)/Kd
Sequence (P13631 whole entry): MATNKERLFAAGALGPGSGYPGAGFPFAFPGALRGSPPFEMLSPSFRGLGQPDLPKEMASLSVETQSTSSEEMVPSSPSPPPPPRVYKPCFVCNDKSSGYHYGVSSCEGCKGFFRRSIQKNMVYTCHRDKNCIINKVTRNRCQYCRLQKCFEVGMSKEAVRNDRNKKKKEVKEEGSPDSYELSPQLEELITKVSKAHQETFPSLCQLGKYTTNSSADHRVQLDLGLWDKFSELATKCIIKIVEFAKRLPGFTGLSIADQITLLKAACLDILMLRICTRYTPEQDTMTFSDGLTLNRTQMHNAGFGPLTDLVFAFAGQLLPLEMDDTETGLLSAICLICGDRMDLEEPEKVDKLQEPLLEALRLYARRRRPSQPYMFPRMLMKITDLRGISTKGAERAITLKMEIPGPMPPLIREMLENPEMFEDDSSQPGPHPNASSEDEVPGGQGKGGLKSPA
I'd be grateful if you could share measured Kd for these entries.

Q: Query: Kd; subject: CN(Cc1cc(C#Cc2ccc(C(C)(C)C(=O)O)cc2)cc2c1OC(C)(C)CC2(C)C)C1CC1 [Compound 9]
A: > 10 µM

Q: Query: Kd; subject: CN(Cc1cc(C#Cc2ccc(CC(=O)O)cc2)cc2c1OC(C)(C)CC2(C)C)C1CC1 [Compound 6]
A: > 10 µM

Q: Query: Kd; subject: C#Cc1cc(NC(=O)Nc2ccc(C(=O)O)c(F)c2)cc2c1OC(C)(C)CC2(C)C [Compound 63]
A: > 100 µM
